Where these numbers come from: PubChem BioAssay (NCI)

Kindly state growth for each of the entries shown.
Test system: SR leukemia
Test Method Notes: NCI-60 one-dose screen, 48 h (100 = growth as untreated, 0 = no growth, -100 = all killed)
Experimental Context: 10 µM unless noted
About 83,000 compounds went through this panel and 20% of them were active in at least one assay; those are over-represented in the sample as a whole.
Quick note: give the figure in %, leave out the unit.

Query: Entry under review: `COc1cccc(/C=C2\SC(N3CCN(c4ccccn4)CC3)=NC2=O)c1` . Reported growth?
Result: 89.7

Query: Now try `Cc1ccc2c(c1)C(=O)C(c1c(-c3[nH]c(=O)c4ccc(C)cc4c3O)c(O)c3ccccc3c1O)=NC2=O` .
Result: 23.1

Query: Now try `COc1ccc(NC(=O)CSc2nc3ccc(Cl)cc3c(=O)n2-c2ccccc2C(F)(F)F)c(OC)c1OC` .
Result: 89.6

Query: Now try CCCCOc1nc2c(C)cccc2cc1C1CNC(=O)c2ccccc2N1 (stereo not given) .
Result: 18.1

Query: Now try `COc1cccc(NC(=O)c2sc3nc4c(cc3c2N)CCCC4)c1` .
Result: 14.3

Query: Now try `O=[N+]([O-])c1c(S(=O)(=O)O)cc2cc(S(=O)(=O)O)ccc2c1[N+](=O)[O-]` .
Result: 103

Query: Now try `COc1ccc(/C=C/C(=O)c2cccc(B(O)O)c2)cc1O` .
Result: 6.45

Query: Now try `COc1cc(Cn2c(SCC(=O)Nc3ccc(Cl)cc3)nc3ccccc3c2=O)cc(OC)c1OC` .
Result: 46.9

Query: Now try `Nc1nn2cc(-c3ccc(Cl)s3)nc2c2ccccc12` .
Result: 49.7

Query: Now try `Cc1oc2nc[nH]c(=O)c2c1C(=O)/C=C/c1ccc(Cl)cc1` .
Result: -30.6

====

Kindly state growth for each of the entries shown.
Tested on: OVCAR-4 ovarian
Test Method Notes: NCI-60 one-dose screen, 48 h (100 = growth as untreated, 0 = no growth, -100 = all killed)
Experimental Context: 10 µM unless noted
Compounds without any hit were thinned out: in the full panel of roughly 83,000, 20% have a hit.
Quick note: give the figure in %, leave out the unit.

Query: Entry under review: `C=C1C(=O)O[C@H]2[C@H]1CC/C(COC(=O)NCCc1ccc(OC)cc1)=C\CC[C@@]1(C)O[C@@H]21` . Reported growth?
Result: 17.4

Query: Now try CCN1C(=O)N(CC)C2C1NN=c1s/c(=C3\C(=O)N(C4CCCC4)c4ccccc43)c(=O)n12 (centres undefined) .
Result: 46.1

Query: Now try Cc1ccc(C2=NN(c3ccc(S(=O)(=O)NC(=O)NCc4ccccc4)cc3)C(c3ccc(N(C)C)cc3)C2)c(C)c1 (centres undefined) .
Result: 57.7

Query: Now try `C=C1C(=O)O[C@H]2[C@H]1CC/C(COC(=O)NCCc1ccc(Br)cc1)=C\CC[C@@]1(C)O[C@@H]21` .
Result: 30

Query: Now try `N#Cc1ncc(-c2ccc(F)c(F)c2F)c(NC2CCCCCC2)n1` .
Result: 81.1

Query: Now try `COc1ccc(/C=C/C(=O)c2ccc(NC(=O)CN3CCN(c4cc5c(cc4F)c(=O)c(C(=O)O)cn5C4CC4)CC3)cc2)cc1` .
Result: 101

Query: Now try `CN1CCN(c2ccc3cc(-c4nc5ccccc5[nH]4)c(=O)oc3c2)CC1` .
Result: 70.3

Query: Now try `Cc1ccc(Cn2c(-c3cccs3)nc3ccccc32)cc1` .
Result: 76.6

Query: Now try `COc1cc(/C=C/C(=O)c2ccccc2O)ccc1OCCCOc1cc2c(cc1OC)C(=O)N1CCC[C@H]1C=N2` .
Result: -2.17

====

Test system: OVCAR-4 ovarian
Test Method Notes: NCI-60 one-dose screen, 48 h (100 = growth as untreated, 0 = no growth, -100 = all killed)
Experimental Context: 10 µM unless noted
The panel holds about 83,000 compounds, 20% with a hit somewhere; the sample as a whole holds those more often.
Kindly state growth for each of the entries shown.
Quick note: give the figure in %, leave out the unit.

Query: Any idea what growth came out for `Cc1nc2sccn2c1-c1csc(Nc2ccccc2Cl)n1` on OVCAR-4 ovarian?
Result: 47.3

Query: Now try CCCCCCCCCCCCCCCCC(Br)C(=O)O (configuration not stated) .
Result: 97.8

Query: Now try `O=C1Nc2ccc(Br)cc2C1=N/C=c1\[nH]c(=O)/c(=C/c2ccc(Cl)cc2)s1` .
Result: 108

Query: Now try `CC(=O)/C=C/c1cc2cc(Cl)ccc2[nH]c1=O` .
Result: 90.5

Query: Now try `c1ccn2nnnc2c1` .
Result: 103

Query: Now try `CCCn1c(=S)sc2c(Cl)nc(C)nc21` .
Result: 85.5

Query: Now try Nc1cccc2c1CN(C1CCC(=O)NC1=O)C2=O (configuration not stated) .
Result: 105

====

Test system: MOLT-4 leukemia
Test Method Notes: NCI-60 one-dose screen, 48 h
Experimental Context: 10 µM unless noted
About 83,000 compounds went through this panel and 20% of them were active in at least one assay; those are over-represented in the sample as a whole. Activity calls are given as the source filed them. The calls were made as follows: active = growth percent below 10; inactive = the rest.
Output constraint: value belongs to 1 (yes) (active), 0 (no) (inactive)

Query: Answer briefly: the call reported for `O=C(CNc1c(Cl)cccc1Cl)Nc1ccc(-c2nc3ccccc3s2)cc1` in this assay.
Result: 1 (yes)

Query: Now try C#CCN1C(=O)/C(=c2\sc3n(c2=O)C2C(NN=3)N(CC)C(=O)N2CC)c2ccccc21 (stereo not given) .
Result: 0 (no)

Query: Now try `CC/C=C\C/C=C\C[C@H](O)C/C=C1/C(=O)C=C[C@H]1C/C=C\CCC(=O)OC` .
Result: 0 (no)

Query: Now try `C=C1C(=O)O[C@H]2[C@H]1CC/C(COC(=O)NCCc1cccc(OC)c1)=C\CC[C@@]1(C)O[C@@H]21` .
Result: 0 (no)

Query: Now try `COc1cc(-c2csc(NC(=O)Nc3ccc(Cl)cc3Cl)n2)cc(OC)c1OC` .
Result: 0 (no)

====

Kindly state growth for each of the entries shown.
System: NCI-H322M lung
Test Method Notes: NCI-60 one-dose screen, 48 h (100 = growth as untreated, 0 = no growth, -100 = all killed)
Experimental Context: 10 µM unless noted
About 83,000 compounds went through this panel and 20% of them were active in at least one assay; those are over-represented in the sample as a whole. The source made the active and inactive calls. How the source made its calls: active means growth percent below 10; inactive means the rest.

Query: Entry under review: `COc1cccc2cc(-c3cc4ccccc4[nH]3)/c(=N/C(=S)Nc3ccccc3)oc12` . Reported growth?
Result: 84% (inactive)

Query: Now try `O=S(=O)(NCCNc1nccc(-c2c(-c3ccccc3)nc3sccn23)n1)c1ccc(O)cc1` .
Result: 58.2% (inactive)

Query: Now try CCC1CCc2nc3sc(C(=O)Nc4cccc(C)c4)c(N)c3cc2C1 (stereo not given) .
Result: 94.8% (inactive)

Query: Now try O=[N+]([O-])c1cc(S(=O)(=O)OCC2CO2)ccc1Cl (stereo not given) .
Result: 82.2% (inactive)

Query: Now try CCC1CCc2nc3sc(C(=O)Nc4ccccc4C)c(N)c3cc2C1 (stereo not given) .
Result: 56.5% (inactive)

Query: Now try `COc1ccc(S(=O)(=O)N2CCN(c3cc4c(cc3F)c(=O)c(C(=O)O)cn4C3CC3)CC2)c(OC)c1` .
Result: 91.6% (inactive)

Query: Now try `O=C(/C=C/c1ccccc1)n1c(-c2ccc(Cl)cc2)nc2ccccc21` .
Result: 45% (inactive)

Query: Now try `Cc1c(C(=O)NCc2ccccc2)[n+](=O)c2cc(F)ccc2n1[O-]` .
Result: 117% (inactive)

Query: Now try `CCN(CC)S(=O)(=O)c1ccc2[nH]c(=O)cc(C(=O)Nc3ccc(OC)cc3OC)c2c1` .
Result: 116% (inactive)

Query: Now try `CC(C)(C)c1cc(-c2nc3ccc(N4CCN(CCO)CC4)cc3[nH]2)cc(C(C)(C)C)c1O` .
Result: 82.3% (inactive)

====

Tested on: HCT-15 colon
Test Method Notes: NCI-60 one-dose screen, 48 h
Experimental Context: 10 µM unless noted
The panel holds about 83,000 compounds, 20% with a hit somewhere; the sample as a whole holds those more often. Calls of active or inactive are those of the source. The calls were made as follows: active = growth percent below 10; inactive = the rest.
Output constraint: value belongs to active, inactive

Query: Answer briefly: the call reported for `COc1cc(/C=C/C(=O)c2ccc(NC(=O)CN3CCN(c4cc5c(cc4F)c(=O)c(C(=O)O)cn5C4CC4)CC3)cc2)cc(OC)c1OC` in this assay.
Result: inactive

Query: Now try `O=C1CCCCN1CCCCC#Cc1ccccc1C#Cc1ccccn1` .
Result: inactive

Query: Now try O=C(Nc1ccccc1)OCC1OCOC(COC(=O)Nc2ccccc2)C1OC(=O)Nc1ccccc1 (stereo not drawn) .
Result: inactive

Query: Now try COC(=O)[C@H]1[C@H](OC)[C@@H](OC(=O)/C=C/c2ccncc2)CC2CN3CCc4c([nH]c5cc(OC)ccc45)[C@@H]3C[C@@H]21 (stereo partly drawn) .
Result: inactive

Query: Now try `O=C(CCl)NCCNc1nccc(Nc2ccc(S(=O)(=O)Nc3ccccn3)cc2)n1` .
Result: active

Query: Now try COc1ccc(C2CC(c3cccs3)=NN2c2ccc(S(=O)(=O)NC(=O)Nc3ccc(C)cc3)cc2)cc1 (stereo not drawn) .
Result: inactive

Query: Now try CC(=O)OCC1OC(OCC2OC(OC(C)=O)C(OC(C)=O)C(OC(C)=O)C2OC(C)=O)C(OC(C)=O)C(OC(C)=O)C1OC(C)=O (stereo not drawn) .
Result: inactive

Query: Now try `COc1cccc(NC(=O)c2sc3nc4c(cc3c2N)CCCC4)c1` .
Result: inactive
